Where do these numbers come from? They come from the RNAGym collection of RNA variant scans (doi:10.7554/elife.80360).

B1: CPEB3 Ribozyme (parent)
chain: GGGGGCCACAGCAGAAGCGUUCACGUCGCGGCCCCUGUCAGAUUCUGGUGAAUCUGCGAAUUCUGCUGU

Variants of: B1
Test: self-cleavage, relative activity (ratio to wild type); higher = more cleavage; co-transcriptional
Rule: self-cleavage of 0.2 or more gives fulfilled; anything lower gives not fulfilled.

Evaluate C35U : self-cleavage at minimum 0.2?
fulfilled
